test.method.notes: Oral bioavailability in mice, Method A
Type: in vivo
experimental.conditions: male, mouse, plasma, CD-1 mice, 10 mg/kg po, read-out: t1/2 (po)
Structures can show the parent of a compound that is named as a salt.
Entry flag: Condition met if half-life reaches 40 min; Condition not met if it does not.

compound: CN[C@]1(c2ccccc2)CCCCC1=O [Compound 14S]
group: Condition met

compound: CNC1(c2ccccc2)CCCCC1=O (racemic) [Compound 14rac, hydrochloride]
group: Condition met

compound: CNC1(c2ccccc2OC)CCCCC1=O (racemic)
group: Condition met

compound: CNC1(c2ccccc2F)CCCCC1=O (racemic)
group: Condition not met

compound: CCNC1(c2cccc(OC)c2)CCCCC1=O (racemic)
group: Condition not met

compound: CN[C@@]1(c2ccccc2)CCCCC1=O [Compound 14R]
group: Condition met
